assay: Cytotoxicity against human HuH7 cells infected with HCV genotype 1b after 48 hrs by WST-1 assay; format: cell-based, Huh-7
METRIC_NAME: CC50 at 48 h

Q: Indicate the recorded CC50 at 48 h value for this compound: O=C(NCc1cccs1)c1cc2nc(-c3ccco3)cc(C(F)(F)Cl)n2n1 [ANGUIZOLE]
Result: > 50 µM

###

assay: Ratio of drug level in liver to plasma in CRL-CD-BR rat; format: ADME, cell-free
METRIC_NAME: Kp
Format: numeric value only, no unit, no commentary.

Q: Return reported Kp. Input compound: `CCc1cc2c(cc1F)c(C#N)c(-c1ccc(S(=O)(=O)N[C@@H](C)C(F)(F)F)cn1)n2-c1ncccn1`
Result: 25
